Cited source for all entries: the supplement of paper PMC6805474

Tested on: Schistosoma mansoni schistosomula (NMRI);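 also: visual microscopic scoring of shape, motility and density changes versus 0.5% DMSO solvent controls, one point per descriptor, degeneracy or death scored 4, mean of duplicate wells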
assay_explanation: phenotypic severity score (0-4); higher = more antischistosomal effect, active = 2 or more
cond: 48 h; 10 µM
reported_endpoint: phenotypic severity score
Would you mind answering with just the numeric figure?

Previously resolved entries follow.
## Input Quick one: give measured phenotypic severity score for Cc1nn(C)cc1C(C)Nc1nncc(-c2ccc(C(F)(F)F)cc2)n1 (stereo not drawn)
## Output 0

## Input // Input: Cc1cc(Nc2ccncc2)n2nc(C)c(-c3ccccc3Cl)c2n1 . Output its phenotypic severity score only.
## Output 0

Then this compound:
## Input # return recorded phenotypic severity score for entry CC(C(=O)Nc1ccc2oc(-c3ccncc3)nc2c1)c1ccccc1 (stereo not drawn)
## Output 0
